Each entry below carries its recorded melting point.

Example cases with answers are listed next.
{"smilesCode": "Clc1nc2cc3c(cc2[nH]1)OCCO3", "melting point": "150 °C"}
{"smilesCode": "Cc1noc(C)c1S(=O)(=O)n1c(Br)nc2cc3c(cc21)OC(F)(F)O3", "melting point": "130 to 134 °C"}
{"smilesCode": "FC1(F)Oc2cc3nc[nH]c3cc2OC1(F)F", "melting point": "70 to 74 °C"}

Incoming: Kindly indicate its recorded melting point. Item: FC1(F)Oc2cc3nc(Br)[nH]c3cc2OC1(F)F
Outgoing: 170 to 174 °C
